- Test protocol: Photoabsorption 290-700 nm, molar extinction coefficient (photoliability)
- Type: physicochemical
- Condition details: wavelength of maximal absorption between 290 nm and 700 nm
Entries and their MEC

Solved entries:
1) COCc1cc(CCN)c(O)cc1CC(C)C [2CiBu-2OH-5MM] :: 380.8 L/mol/cm
2) COCc1cc(CCN)c(OC)cc1CC(C)C [Compound 2CiBu-5MM] :: 283.6 L/mol/cm
3) COCc1cc(CCN)c(OC)cc1Br [Compound 2CB-5MM] :: 781.9 L/mol/cm

Lab note: next molecule to report on.
GET /value?item= COc1cc(CC(C)C)c(CO)cc1CCN [Compound 2CiBu-5HM] &field=MEC returns 340.7 L/mol/cm

----------
- Study target: H1 (h) (Homo sapiens)
- Construct: expressed in transfected cells; host or cells: HEK-293 cells
- Sequence (P35367 whole entry): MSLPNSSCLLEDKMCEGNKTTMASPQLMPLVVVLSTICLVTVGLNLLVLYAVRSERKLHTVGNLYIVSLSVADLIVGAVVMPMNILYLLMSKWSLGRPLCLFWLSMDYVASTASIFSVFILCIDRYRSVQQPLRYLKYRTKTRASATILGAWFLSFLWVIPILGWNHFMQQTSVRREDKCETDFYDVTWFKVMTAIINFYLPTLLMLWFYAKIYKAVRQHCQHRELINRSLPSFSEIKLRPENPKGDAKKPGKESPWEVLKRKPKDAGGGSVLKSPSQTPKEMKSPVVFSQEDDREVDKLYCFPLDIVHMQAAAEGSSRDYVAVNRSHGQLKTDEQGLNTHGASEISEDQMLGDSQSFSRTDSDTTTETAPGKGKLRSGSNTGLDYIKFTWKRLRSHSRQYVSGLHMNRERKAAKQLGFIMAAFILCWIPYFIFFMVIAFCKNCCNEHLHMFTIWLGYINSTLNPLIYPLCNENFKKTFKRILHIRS
- Test protocol: Radioligand binding H1 (h) (antagonist radioligand), [^3H]pyrilamine, HEK-293 cells
Quick reference for Mean Percent Inhibition of Control Specific Binding among some molecules
Just the number in %, nothing appended.

Examples with answers:
1) COCc1cc(CCN)c(O)cc1CC(C)C [2CiBu-2OH-5MM] :: 5.7
2) COCCc1cc(CCN)c(OC)cc1Br [Compound 2CB-5ME, reference compound] :: 7.3
3) COCc1cc(CCN)c(OC)cc1Br [Compound 2CB-5MM] :: 7.3

Item: COCc1cc(CCN)c(OC)cc1CC(C)C [Compound 2CiBu-5MM] | System: H1 (h) (Homo sapiens) | Mean Percent Inhibition of Control Specific Binding: 0.6

----------
# maps each entry to its Mean Percent Inhibition of Control Specific Binding
- Study target: alpha1D (h) (Homo sapiens, UniProt P25100)
- Construct: expressed in transfected cells; host or cells: CHO cells
- Sequence (P25100 1-572): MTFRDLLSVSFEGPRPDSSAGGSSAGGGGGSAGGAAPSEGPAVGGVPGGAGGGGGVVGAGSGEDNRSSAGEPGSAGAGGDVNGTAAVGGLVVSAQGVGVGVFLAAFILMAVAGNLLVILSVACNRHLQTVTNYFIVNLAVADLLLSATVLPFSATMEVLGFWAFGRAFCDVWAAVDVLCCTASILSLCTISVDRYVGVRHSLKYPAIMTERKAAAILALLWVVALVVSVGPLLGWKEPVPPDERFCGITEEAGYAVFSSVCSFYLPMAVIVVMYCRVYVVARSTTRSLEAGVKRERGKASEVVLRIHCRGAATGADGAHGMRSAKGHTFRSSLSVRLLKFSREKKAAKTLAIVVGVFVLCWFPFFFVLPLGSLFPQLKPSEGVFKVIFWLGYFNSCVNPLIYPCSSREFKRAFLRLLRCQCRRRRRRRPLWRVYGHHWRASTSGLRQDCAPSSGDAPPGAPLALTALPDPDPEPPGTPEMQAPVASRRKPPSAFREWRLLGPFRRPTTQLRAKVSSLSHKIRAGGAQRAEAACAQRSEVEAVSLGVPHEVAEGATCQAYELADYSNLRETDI
- Test protocol: Radioligand binding alpha1D (h) (antagonist radioligand), [^3H]prazosin, CHO cells
Kindly write the number and append the unit.

Below: 3 molecules and their reported Mean Percent Inhibition of Control Specific Binding.
1. COCc1cc(CCN)c(OC)cc1CC(C)C [Compound 2CiBu-5MM] :: 0.5%
2. COCCc1cc(CCN)c(OC)cc1Br [Compound 2CB-5ME, reference compound] :: 10.0%
3. COCc1cc(CCN)c(OC)cc1Br [Compound 2CB-5MM] :: 9.5%

Lab note: COCc1cc(CCN)c(O)cc1CC(C)C [2CiBu-2OH-5MM] gave Mean Percent Inhibition of Control Specific Binding of 11.8%

----------
// IC50 lookup, one value per entry
- Study target: 5-HT2B (h) (Homo sapiens, UniProt P41595)
- Sequence (P41595 whole entry): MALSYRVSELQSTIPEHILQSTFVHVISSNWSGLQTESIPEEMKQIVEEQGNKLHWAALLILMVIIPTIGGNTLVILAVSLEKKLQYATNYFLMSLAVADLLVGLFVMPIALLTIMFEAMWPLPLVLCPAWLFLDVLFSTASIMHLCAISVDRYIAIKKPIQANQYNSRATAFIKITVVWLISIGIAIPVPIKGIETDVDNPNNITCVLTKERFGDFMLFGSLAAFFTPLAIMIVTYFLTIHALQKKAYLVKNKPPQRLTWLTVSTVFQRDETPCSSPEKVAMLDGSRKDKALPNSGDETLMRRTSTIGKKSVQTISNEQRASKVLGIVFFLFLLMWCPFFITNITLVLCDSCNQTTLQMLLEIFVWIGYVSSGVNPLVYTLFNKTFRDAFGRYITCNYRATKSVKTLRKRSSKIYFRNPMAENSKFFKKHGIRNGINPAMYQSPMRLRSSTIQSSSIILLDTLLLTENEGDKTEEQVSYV
Give the number; nM is assumed, so skip it.

1. COCc1cc(CCN)c(OC)cc1CC(C)C :: 270

// moving on: another record for IC50
# value of IC50, 5-HT2B (h) (Homo sapiens, UniProt P41595), item COc1cc(C[C@@H](C)N)c(OC)cc1I [R-DOI, (−)-R-2,5-dimethoxy-4-iodo-amphetamine, reference compound] = 2.3

----------
Listed below: Mean Percent Inhibition of Control Specific Binding values for each entry.
- Study target: 5-HT3 (h) (Homo sapiens, UniProt P46098)
- Construct: expressed in transfected cells; host or cells: CHO cells
- Sequence (P46098 24-478): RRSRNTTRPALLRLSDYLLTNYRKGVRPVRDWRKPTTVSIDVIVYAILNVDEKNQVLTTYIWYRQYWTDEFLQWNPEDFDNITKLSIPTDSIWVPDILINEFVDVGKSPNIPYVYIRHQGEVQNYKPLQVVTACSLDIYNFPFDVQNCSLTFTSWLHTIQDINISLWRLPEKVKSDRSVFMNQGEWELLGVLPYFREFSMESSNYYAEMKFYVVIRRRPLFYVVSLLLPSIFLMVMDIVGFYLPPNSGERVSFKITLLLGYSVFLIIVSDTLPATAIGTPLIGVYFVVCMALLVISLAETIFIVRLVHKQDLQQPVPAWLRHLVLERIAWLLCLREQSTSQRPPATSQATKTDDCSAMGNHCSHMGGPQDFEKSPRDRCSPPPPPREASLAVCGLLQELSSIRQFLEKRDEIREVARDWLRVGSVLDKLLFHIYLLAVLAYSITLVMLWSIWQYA
- Test protocol: Radioligand binding 5-HT3 (h) (antagonist radioligand), [^3H]BRL 43694, CHO cells
Kindly answer with a numeric value in %, unit omitted.

Use the examples below as a reference point.
1. COCc1cc(CCN)c(OC)cc1Br [Compound 2CB-5MM] :: 11.6
2. COCc1cc(CCN)c(OC)cc1CC(C)C [Compound 2CiBu-5MM] :: 2.6
3. COCc1cc(CCN)c(O)cc1CC(C)C [2CiBu-2OH-5MM] :: −3.9

Here's the next entry for you.
Query COCCc1cc(CCN)c(OC)cc1Br [Compound 2CB-5ME, reference compound] yields Mean Percent Inhibition of Control Specific Binding of −1.6

----------
List of Mean Percent Inhibition of Control Specific Binding values.
- Test system: NMDA
- Test protocol: Radioligand binding NMDA (antagonist radioligand), [^3H]CGP 39653, rat cerebral cortex
// units = %; emit number, no label

1. COCc1cc(CCN)c(OC)cc1CC(C)C :: 12.0
2. COCCc1cc(CCN)c(OC)cc1Br [Compound 2CB-5ME, reference compound] :: 3.5
3. COCc1cc(CCN)c(OC)cc1Br :: 4.7

So for COCc1cc(CCN)c(O)cc1CC(C)C , the logged Mean Percent Inhibition of Control Specific Binding turned out to be −24.3

----------
Each record here notes measured EC50.
- Study target: 5-HT2A (Homo sapiens)
- Sequence (P28223 whole entry, looked up): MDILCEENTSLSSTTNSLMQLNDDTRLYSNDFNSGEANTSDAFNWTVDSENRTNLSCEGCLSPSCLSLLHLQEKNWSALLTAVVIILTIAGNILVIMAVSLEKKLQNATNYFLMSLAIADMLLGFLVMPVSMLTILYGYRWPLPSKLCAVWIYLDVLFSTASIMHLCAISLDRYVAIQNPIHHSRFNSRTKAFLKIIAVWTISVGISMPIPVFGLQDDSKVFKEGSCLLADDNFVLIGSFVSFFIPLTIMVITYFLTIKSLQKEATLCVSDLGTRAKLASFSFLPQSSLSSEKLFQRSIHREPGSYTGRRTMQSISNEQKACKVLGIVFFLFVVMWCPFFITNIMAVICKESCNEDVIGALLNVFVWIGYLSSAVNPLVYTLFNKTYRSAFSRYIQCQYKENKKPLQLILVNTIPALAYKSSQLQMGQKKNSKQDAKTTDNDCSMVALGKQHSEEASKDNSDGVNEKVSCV
- Test protocol: Calcium flux agonist assay, 293T cells
- Type: cell-based
- Set-up: expressed in transfected cells; host or cells: Human Embryonic Kidney (293T) cells, transient
# value in nM; strip the unit string

Example entries and their recorded answers appear below.
1. COCc1cc(CCN)c(OC)cc1CC(C)C :: 42.2
2. COCc1cc(CCN)c(OC)cc1Br :: 0.68
3. COc1cc(CC(C)C)c(OC)cc1CCN [Compound 2C-iBu, reference compound] :: 21.9
4. COc1cc(CCN)c(OC)cc1Br [Compound 2C-B, reference compound] :: 0.62

Let us move to another entry and its EC50.
Record COCc1cc(CCN)c(O)cc1CC(C)C , field EC50: 55.9

----------
- Study target: CCK1 (CCKA) (h) (Homo sapiens, UniProt P32238)
- Construct: expressed in transfected cells; host or cells: CHO cells
- Sequence (P32238 1-428): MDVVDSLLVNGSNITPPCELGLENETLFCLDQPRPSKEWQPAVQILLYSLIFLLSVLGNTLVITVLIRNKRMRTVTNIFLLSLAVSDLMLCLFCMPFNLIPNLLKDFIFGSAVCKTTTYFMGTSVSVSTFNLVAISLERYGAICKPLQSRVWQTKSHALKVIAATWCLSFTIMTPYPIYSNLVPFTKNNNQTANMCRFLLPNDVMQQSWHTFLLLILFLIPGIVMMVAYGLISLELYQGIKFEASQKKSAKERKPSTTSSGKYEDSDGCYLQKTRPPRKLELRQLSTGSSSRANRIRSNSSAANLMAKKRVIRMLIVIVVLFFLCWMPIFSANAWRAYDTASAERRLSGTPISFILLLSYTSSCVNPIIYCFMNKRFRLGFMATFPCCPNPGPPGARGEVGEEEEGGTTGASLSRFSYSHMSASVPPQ
- Test protocol: Radioligand binding CCK1 (CCKA) (h) (agonist radioligand), [^125I]CCK-8s, CHO cells
- Condition details: CCK1 (CCKA) (h) (agonist radiolig.)
- Procedure: Methods—Binding Assays: In vitro binding assays were performed using human recombinant receptors expressed in mammalian cell lines. […] All assays were conducted in triplicate, and specific binding was quantified by scintillation counting as the detection method for each listed assay. Specific binding was expressed as a percentage of control-specific binding, and percent inhibition was calculated using the formula in Ex. 8 above. […]
Catalogue of molecules with associated Mean Percent Inhibition of Control Specific Binding
Answer format: numeric, % implied, no suffix.

A selection of reference data follows.
1. COCc1cc(CCN)c(O)cc1CC(C)C [2CiBu-2OH-5MM] :: −0.1
2. COCc1cc(CCN)c(OC)cc1CC(C)C [Compound 2CiBu-5MM] :: 12.2
3. COCc1cc(CCN)c(OC)cc1Br [Compound 2CB-5MM] :: −11.5

The measured Mean Percent Inhibition of Control Specific Binding associated with COCCc1cc(CCN)c(OC)cc1Br [Compound 2CB-5ME, reference compound] reads 3.3

----------
- Study target: PDE4D2(h) (Homo sapiens)
- Construct: host or cells: Sf9 cells
- Sequence (Q08499 303-809 limits assumed): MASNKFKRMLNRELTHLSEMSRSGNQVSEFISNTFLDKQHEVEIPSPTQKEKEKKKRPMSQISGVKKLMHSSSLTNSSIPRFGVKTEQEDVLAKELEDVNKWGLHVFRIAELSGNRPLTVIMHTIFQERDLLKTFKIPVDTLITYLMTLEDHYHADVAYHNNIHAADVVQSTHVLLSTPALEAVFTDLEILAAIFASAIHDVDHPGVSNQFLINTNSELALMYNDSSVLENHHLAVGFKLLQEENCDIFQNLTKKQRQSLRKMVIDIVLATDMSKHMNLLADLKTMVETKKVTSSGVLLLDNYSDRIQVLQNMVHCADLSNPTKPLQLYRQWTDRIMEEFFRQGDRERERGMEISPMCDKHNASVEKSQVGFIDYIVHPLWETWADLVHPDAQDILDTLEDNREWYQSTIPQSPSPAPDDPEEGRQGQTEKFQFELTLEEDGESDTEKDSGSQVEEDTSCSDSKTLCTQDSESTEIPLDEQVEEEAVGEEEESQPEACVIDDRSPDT
- Test protocol: Enzyme assay PDE4D2(h), [3H]cAMP, scintillation counting
- Assay type: biochemical
- Description: Methods—Enzyme and Uptake Assays: In vitro enzyme and uptake assays were conducted by Eurofins Discovery using human recombinant enzymes expressed in various mammalian and insect cell lines. Enzymatic activity was measured using appropriate substrates or tracers under conditions optimized for each target, as detailed in Table 7. Reactions were incubated at room temperature for a defined duration and terminated according to established protocols. […]
Reported endpoint: Mean Percent Inhibition of Control Specific Binding (%)
// units = %; emit number, no label

Please review the following examples before continuing.
1. COCc1cc(CCN)c(OC)cc1CC(C)C :: 3.0
2. COCCc1cc(CCN)c(OC)cc1Br [Compound 2CB-5ME, reference compound] :: −5.7
3. COCc1cc(CCN)c(OC)cc1Br :: −0.5

// sample COCc1cc(CCN)c(O)cc1CC(C)C , its Mean Percent Inhibition of Control Specific Binding was 67.4
